Test system: Cdk1 phosphorylated on tyrosine 15
Test: High-content imaging of pCdk1 Y15 by immunofluorescence in ACHN cells
Type: cell-based
Settings: Homo sapiens, high-content imaging (IF), 4 h, 7 to 5000 nM, read-out: CDK1 Tyr15 Phosphorylation EC50 (IC50)
pEC50: −log10 of the molar value.
Parameter Measured: pEC50

Compound | System Tested | Parameter Measured | Result
CCOc1nc(Nc2cnn([C@@H](C)CNC)c2)ncc1C(=O)Nc1c(Cl)cccc1Br | Cdk1 phosphorylated on tyrosine 15 | pEC50 | < 6.00
COc1nc(Nc2cnn(C[C@H]3CCNC3)c2)ncc1C(=O)Nc1c(Cl)cccc1Cl | Cdk1 phosphorylated on tyrosine 15 | pEC50 | < 6.00
COc1nc(Nc2ccc(C3CCN(C)CC3)c(C)c2)ncc1C(=O)Nc1c(F)ccc(F)c1Cl | Cdk1 phosphorylated on tyrosine 15 | pEC50 | 6.30 to 7.00
COc1nc(Nc2ccc3c(c2)CN(C)CC3(C)C)ncc1C(=O)Nc1c(Cl)cccc1Cl | Cdk1 phosphorylated on tyrosine 15 | pEC50 | ≥ 7.00
CCc1cccc(Cl)c1NC(=O)c1cnc(Nc2ccc(C3CCN(C)CC3)c(C)c2)nc1OC | Cdk1 phosphorylated on tyrosine 15 | pEC50 | 6.30 to 7.00
COc1nc(Nc2ccc(O[C@@H]3CCNC3)c(C)c2)ncc1C(=O)Nc1c(Cl)cccc1Br | Cdk1 phosphorylated on tyrosine 15 | pEC50 | 6.30 to 7.00

// query Query (compound): COc1nc(Nc2ccc(OCCCN3CCOCC3)c(C)c2)ncc1C(=O)Nc1c(Cl)ccc(O)c1C ; field requested: pEC50
// result < 6.00

====

// values below are reported pEC50
Tested on: Cdk1 phosphorylated on tyrosine 15
Test: High-content imaging of pCdk1 Y15 by immunofluorescence in ACHN cells
Assay type: cell-based
Conditions: Homo sapiens, high-content imaging (IF), 4 h, 7 to 5000 nM, read-out: CDK1 Tyr15 Phosphorylation EC50 (IC50)
pEC50: −log10 of the molar value.

In the examples that follow, each entry is paired with its recorded pEC50.
Compound | Result
COc1nc(Nc2ccc([C@@H]3CCNC3)c(C)c2)ncc1C(=O)Nc1c(Cl)cccc1Br (single isomer, unassigned) | 6.30 to 7.00
COc1nc(Nc2ccc(C3CCN(C)CC3)c(C)c2)ncc1C(=O)Nc1c(Br)cccc1C#N | 6.30 to 7.00

// query Query (compound): COc1nc(Nc2ccc(N3CCN(C)CC3)cc2)ncc1C(=O)Nc1c(Cl)cccc1Cl ; field requested: pEC50
// result 6.30 to 7.00

// query Query (compound): Cc1cc(Nc2ncc(C(=O)Nc3c(Cl)cccc3Cl)c(OCC(F)(F)F)n2)ccc1C1CCN(C)CC1 ; field requested: pEC50
// result 6.30 to 7.00

// query Query (compound): COc1nc(Nc2ccc(C3CCN(C)CC3)c(C)c2)ncc1C(=O)Nc1c(Cl)cccc1Br ; field requested: pEC50
// result ≥ 7.00

// query Query (compound): COc1nc(Nc2ccc(C3CCN(C)CC3)c(C)c2)ncc1C(=O)Nc1c(Cl)cccc1Cl ; field requested: pEC50
// result ≥ 7.00

// query Query (compound): COc1nc(Nc2cnn(C[C@@H]3CCNC3)c2)ncc1C(=O)Nc1c(Cl)cccc1Cl ; field requested: pEC50
// result < 6.00

// query Query (compound): COc1nc(Nc2ccc(C3CCN(C)CC3)c(C)c2)ncc1C(=O)Nc1c(C)cccc1Br ; field requested: pEC50
// result 6.30 to 7.00

Taken from patent US20260207618A1.
